Hello, the source for this data is PubChem BioAssay, in case you need it.

assay: inhibitors of TNFa-induced NFkB p65 translocation, primary screen, imaging, HUVEC, MLSMR starter and 10KST1 sets (AID 438); conditions: HUVEC TNFa-induced p65 nuclear translocation; measured here: nuclei count (cytotoxicity indicator), at 2.08 µM;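 note: compound added about 3h40 before a 20 min TNFalpha stimulation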
readout: cell count
Reply briefly: the number, and no unit.

Task: Consider the molecule CCCC1c2ccc(C)n2CCN1C(=O)Nc1ccccc1Cl (stereo unspecified) and give its measured cell count.
Output: 243

Task: Please give the measured cell count for this molecule: CC1Cc2nc(SCC(=O)Nc3ccc(F)cc3F)n(C)c(=O)c2S1 (stereo unspecified)
Output: 366

Task: Which cell count reading was recorded for the molecule CCOC(=O)c1cnc(SCC)[nH]c1=O ?
Output: 436

Task: What value of cell count has been recorded for this entry: Cc1nnc(SCc2ccccc2F)n1NCc1cccs1
Output: 767

Task: # cell count lookup, item COC(=O)[C@H](C)NC(=O)NCc1ccc(F)cc1
Output: 589

Task: I would be grateful if you could share the reported cell count for O=c1[nH]c(=O)n(C2CCCCCC2)c(O)c1C=NCc1ccc(F)cc1 .
Output: 666

###

assay: reduction of polyQ htt aggregates in cells – imaging, exon1htt(103Q)mCFP cells, high-content imaging, primary screen (AID 483); conditions: exon1htt(103Q)mCFP cell line, aggregate imaging, at 2 µM; measured here: cell count, toxicity;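 note: compound exposure lasted 3 days before fixation; percent of the per-plate median nuclei count of sample wells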
readout: nuclei count (%)
Number in %, nothing else.

Task: Entry under review: COCCN(Cc1cc2cccc(C)c2[nH]c1=O)C(=O)c1ccccc1 . Reported nuclei count?
Output: 91.8

Task: Quick one: nuclei count of N#Cc1ccccc1Cn1c(=O)n(Cc2ccc(C(=O)NCc3ccco3)cc2)c(=O)c2ccccc21 ?
Output: 83.9

Task: Which nuclei count is listed for COCCn1nnnc1CN1CCC(Cc2ccccc2)CC1 ?
Output: 113

Task: Consider the molecule CCCCn1c(=O)[nH]c(=O)c2c1nc(COc1ccc(C#N)cc1)n2CCC and give its measured nuclei count.
Output: 97.4

Task: Fill blank: measured nuclei count of the molecule Nn1c(SCC(=O)Nc2ccc(F)cc2)nnc1-c1cccnc1 is ____.
Output: 111

Task: Report nuclei count for c1cc(-c2nc3ccccc3o2)nc(-c2nc3ccccc3o2)c1 please.
Output: 82.8

Task: Request the reported nuclei count associated with CCn1cc(C2Nc3ccccc3C(=O)N2O)c(C)n1 (stereo unspecified)
Output: 112

Task: Quick one: nuclei count of Cc1cc(=O)[nH]c(=S)n1-c1ccccc1 ?
Output: 103

Task: Which nuclei count is reported for this molecule? CC(C)(C)C1CCc2[nH]nc(C(=O)O)c2C1 (stereo unspecified)
Output: 104

Task: Form field: reported nuclei count of CC(C)c1nccn1S(=O)(=O)c1cc(Cl)ccc1Cl
Output: 110

Task: # lookup: nuclei count of COc1cccc(N2CCN(CC(=O)Nc3nnc(-c4ccccc4)s3)CC2)c1
Output: 105

###

Exercise: state measured nuclei count for each of the molecules provided.
test: endothelial E-selectin expression blockers – imaging, HUVEC, immunofluorescence, MLSMR starter and 10KST1 sets, primary screen (AID 487); conditions: HUVEC TNFalpha-induced E-selectin immunofluorescence imaging, at 2 µM; measured here: cell number, toxicity;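 note: 100% = median nuclei count of all wells on the same plate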
Numeric only. Scale: %

Task: Form field: reported nuclei count of C(=N/n1c2ccccc2c2ccccc21)/c1ccco1
Output: 109

Task: Return reported nuclei count; argument: CC1(C)CNC(=O)CC(C)(C)N1O
Output: 110

Task: Look at this molecule and give its reported nuclei count. Cc1cc(C)n(-c2cc(N3CCOCC3)nc(-c3ccccc3)n2)n1
Output: 114

Task: I have this molecule here, CC(=O)Nc1ccc(S(=O)(=O)NCC(C)NS(=O)(=O)c2ccc(NC(C)=O)cc2)cc1 (stereo not given) , and I need its recorded nuclei count.
Output: 95.1

Task: Which nuclei count value is on record for CCOC(=O)C1=C(O)C(=O)N(c2ccc(S(N)(=O)=O)cc2)C1c1ccccc1 (stereo not given) ?
Output: 117

Task: Consider the molecule shown here: CNC(=O)C1C2C=CC3(O2)C1C(=O)N(C1CC1)C3C(=O)NCc1ccc(OC)cc1 (stereo not given) What is its recorded nuclei count?
Output: 98.4

Task: Return reported nuclei count; argument: CCOC(=O)c1ccc(N2Cc3cc(C)c(C)cc3C2)cc1O
Output: 119

Task: Name the reported nuclei count value associated with the molecule CCc1ccccc1-n1c(SCC(=O)N2CCCC2)nnc1-c1ccccn1
Output: 104

Task: # get_value(readout='nuclei count', item= CCN1CCN(c2ncnc3c2cnn3-c2ccc(C)cc2C)CC1 )
Output: 112

Task: Bench note: what nuclei count did C/C(Nc1cccc(F)c1)=C(/C#N)C(N)=O show?
Output: 106

Task: Reported nuclei count for Cc1onc(-c2ccccc2Cl)c1C(=O)NCc1cccnc1 : what is it?
Output: 92.3

Task: Requested field: nuclei count. Item: O=c1c(-c2ccccc2)coc2c(CN3CCOCC3)c(O)ccc12
Output: 129

Task: What nuclei count value was documented for this molecule, CCC(C)(C)n1nnnc1C(c1cc2cc(C)ccc2[nH]c1=O)N1CCCC1 (stereo not given) ?
Output: 110

Task: Could you tell me which nuclei count is on file for N#CC1=C(N)OC(c2ccccc2)=C(C#N)C1c1ccc2c(c1)OCO2 (stereo not given) ?
Output: 96.1

Task: Any idea what its nuclei count is? The molecule is O=C(Nc1cccc(F)c1)C1C2C=CC3(CN(CCCN4CCOCC4)C(=O)C13)O2 (stereo not given)
Output: 116

Task: So what's the measured nuclei count for this one? COc1ccc(C)cc1NC(=O)CN(Cc1nnc(-c2ccc(Cl)cc2)o1)C1CCCC1
Output: 110

Task: Requested read-out: nuclei count. Entry: COc1ccccc1NC(=O)CSc1nnnn1-c1ccc2c(c1)OCO2
Output: 104

Task: Please look up its nuclei count: Cc1cc(NC(=O)CCOc2ccccc2)no1
Output: 64.3

Task: nuclei count lookup needed for Cc1c(C(=O)OCC(C)C)[nH]c2c1C(=O)CC(c1ccco1)C2 (stereo not given) , thanks.
Output: 96.5

Task: What measured nuclei count goes with COc1ccc(S(=O)(=O)N2CCN(CC(=O)Nc3ccc(F)c(F)c3)CC2)cc1 ?
Output: 97.3

Task: Look at this molecule and give its reported nuclei count. CCOc1ccc(N(CC(=O)NC2CCCCC2)S(=O)(=O)c2c(C)noc2C)cc1
Output: 112

Task: Look at this molecule and give its reported nuclei count. COc1ccc(Nc2nc(-c3sc(N)nc3C)cs2)cc1
Output: 118

Task: Can you share its nuclei count? I mean this molecule: c1cn2cc(CSC3CCCCC3)nc2s1
Output: 140

Task: Can you share its nuclei count? I mean this molecule: O=C(CSc1nc2ccccc2s1)N1CCOCC1
Output: 118

Task: Could you share which nuclei count value was measured for Cc1cc(C)nc(SCCS(=O)Cc2ccc(Cl)cc2)n1 (stereo not given) ?
Output: 95

Task: What measured nuclei count goes with CN(CCc1ccccn1)c1ncnc2[nH]ncc12 ?
Output: 63.8

Task: Looking for the measured nuclei count of COc1ccc(CCn2c(-c3ccco3)nc3nc4ccccc4nc32)cc1 , can you help?
Output: 115

Task: Fill blank: measured nuclei count of the molecule COc1ccc(NC(=O)CCc2ccccc2)cc1NC(=O)c1ccco1 is ____.
Output: 95.1

Task: Endpoint output: nuclei count of Cc1nnc(SCc2cc(=O)[nH]c(N3CCCCC3)n2)s1 . Value?
Output: 107

Task: Requested field: nuclei count. Item: CNC(=O)CSc1nnc(-c2cc3c(C)nn(-c4ccccc4)c3s2)n1C
Output: 118

Task: I am curious: what nuclei count value has been reported for O=C(Nc1cnn(C23CC4CC(CC(C4)C2)C3)c1)c1cnn2c(C(F)(F)F)cc(-c3ccco3)nc12 ?
Output: 121

Task: Endpoint output: nuclei count of CCOc1ccccc1NC(=O)CC1Nc2cc(C)c(C)cc2NC1=O (stereo not given) . Value?
Output: 105

Task: // nuclei count lookup, key: COC(=O)c1ccccc1S(=O)(=O)NC(=O)c1ccccc1
Output: 114

Task: Which measured nuclei count value corresponds to COC(=O)c1ccc(NC(=O)C(C)N2C(=O)c3ccccc3C2=O)cc1 (stereo not given) ?
Output: 108

Task: Requested field: nuclei count. Item: CC(=O)NC(Cc1ccc(C)cc1)C(=O)NC1CCN(C(=O)c2cnccn2)CC1 (stereo not given)
Output: 117

Task: Please give the measured nuclei count for this molecule: Cc1cccc(Nc2nc3c(c(=O)n(C)c(=O)n3C)n2Cc2ccccc2)c1
Output: 106

Task: Name the recorded nuclei count for Cc1ccc(-n2c3c(cc(C(=O)NC4CCSC4=O)c2=O)C(=O)CC(C)(C)C3)cc1 (stereo not given) .
Output: 97.9

Task: Fill in: nuclei count of CCCn1c(OC)nc2c1c(=O)n(C)c(=O)n2C is ___
Output: 124

Task: Can you share its nuclei count? I mean this molecule: COc1ccc(-n2ccnc2SCC(=O)NCc2ccc3c(c2)OCO3)cc1
Output: 123

Task: Dear colleague, I am looking for the recorded nuclei count of the following molecule: CN1C(=O)CCC1(O)c1ccccc1 (stereo not given)
Output: 103

Task: May I ask what nuclei count has been recorded for O=C(Nc1ccncc1)C1c2ccccc2Oc2ccccc21 ?
Output: 102

Task: # get_value(readout='nuclei count', item= CCOc1ccc2nc(NC(=O)CSc3nc4ccccc4c(=O)n3Cc3ccco3)sc2c1 )
Output: 132

Task: Data request, read-out nuclei count, for Cc1cc(Nc2ccc(C(=O)O)cc2)n2nc(C)nc2n1
Output: 106

Task: For Cn1cccc1Cc1nnc(SCC(=O)NCc2ccc(F)cc2)n1-c1ccc(F)cc1 , what is its reported nuclei count?
Output: 116

Task: I'd like to know its nuclei count. The molecule in question is O=C(Cn1c(=O)n(CC2CCCO2)c(=O)c2ccccc21)c1ccccc1 (stereo not given)
Output: 111
